Recorded values, source patent US20080032950A1.

- targetUnderTest: GABAC (ρ1) (Homo sapiens, UniProt P24046)
- Construct: expressed in transfected cells; host or cells: Xenopus laevis oocytes injected with mRNA
- Sequence (P24046 22-479): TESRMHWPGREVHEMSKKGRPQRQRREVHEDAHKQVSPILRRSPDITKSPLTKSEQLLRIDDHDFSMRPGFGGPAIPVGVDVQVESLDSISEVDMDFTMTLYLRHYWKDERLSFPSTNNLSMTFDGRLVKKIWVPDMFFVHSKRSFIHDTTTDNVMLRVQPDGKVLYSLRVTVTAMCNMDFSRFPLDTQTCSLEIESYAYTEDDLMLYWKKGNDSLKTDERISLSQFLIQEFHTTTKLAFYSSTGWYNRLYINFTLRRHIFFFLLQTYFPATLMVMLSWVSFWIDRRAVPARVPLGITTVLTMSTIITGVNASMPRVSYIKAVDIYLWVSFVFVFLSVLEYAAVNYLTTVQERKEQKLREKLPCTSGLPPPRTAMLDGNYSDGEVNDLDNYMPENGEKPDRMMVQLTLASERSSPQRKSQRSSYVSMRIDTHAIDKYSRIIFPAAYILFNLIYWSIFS
- testName: Two-electrode voltage clamp on ρ1 GABAC receptors expressed in Xenopus oocytes
- Type: cell-based
pIC50: −log10 of the molar value.

| compound | pIC50 |
| --- | --- |
| CC(C)P(=O)(O)C1=CCC(N)C1 (racemic) [Compound 17] | 5.20 |

###

- targetUnderTest: GABAB (GB1) (Homo sapiens)
- Construct: expressed in transfected cells; host or cells: Xenopus laevis oocytes injected with mRNA
- testName: Two-electrode voltage clamp on GABAB receptors expressed in Xenopus oocytes
- Type: cell-based
- measurementParameters: Xenopus oocytes, voltage clamp -60 mV
measureName: GABAB (GB1) activity (type of action)

| molecule | targetUnderTest | measureName | reported |
| --- | --- | --- | --- |
| CC(C)P(=O)(O)C1=CCC(N)C1 (racemic) | GABAB (GB1) (Homo sapiens) | GABAB (GB1) activity (type of action) | Antagonist |
| CCP(=O)(O)C1=CCC(N)C1 (racemic) | GABAB (GB1) (Homo sapiens) | GABAB (GB1) activity (type of action) | Antagonist |
| CCCCP(=O)(O)C1=CCC(N)C1 (racemic) | GABAB (GB1) (Homo sapiens) | GABAB (GB1) activity (type of action) | Antagonist |

###

Measured IC50 by item
- targetUnderTest: GABAB (GB1) (Homo sapiens, UniProt Q9UBS5)
- Sequence (Q9UBS5 20-961, species assumed): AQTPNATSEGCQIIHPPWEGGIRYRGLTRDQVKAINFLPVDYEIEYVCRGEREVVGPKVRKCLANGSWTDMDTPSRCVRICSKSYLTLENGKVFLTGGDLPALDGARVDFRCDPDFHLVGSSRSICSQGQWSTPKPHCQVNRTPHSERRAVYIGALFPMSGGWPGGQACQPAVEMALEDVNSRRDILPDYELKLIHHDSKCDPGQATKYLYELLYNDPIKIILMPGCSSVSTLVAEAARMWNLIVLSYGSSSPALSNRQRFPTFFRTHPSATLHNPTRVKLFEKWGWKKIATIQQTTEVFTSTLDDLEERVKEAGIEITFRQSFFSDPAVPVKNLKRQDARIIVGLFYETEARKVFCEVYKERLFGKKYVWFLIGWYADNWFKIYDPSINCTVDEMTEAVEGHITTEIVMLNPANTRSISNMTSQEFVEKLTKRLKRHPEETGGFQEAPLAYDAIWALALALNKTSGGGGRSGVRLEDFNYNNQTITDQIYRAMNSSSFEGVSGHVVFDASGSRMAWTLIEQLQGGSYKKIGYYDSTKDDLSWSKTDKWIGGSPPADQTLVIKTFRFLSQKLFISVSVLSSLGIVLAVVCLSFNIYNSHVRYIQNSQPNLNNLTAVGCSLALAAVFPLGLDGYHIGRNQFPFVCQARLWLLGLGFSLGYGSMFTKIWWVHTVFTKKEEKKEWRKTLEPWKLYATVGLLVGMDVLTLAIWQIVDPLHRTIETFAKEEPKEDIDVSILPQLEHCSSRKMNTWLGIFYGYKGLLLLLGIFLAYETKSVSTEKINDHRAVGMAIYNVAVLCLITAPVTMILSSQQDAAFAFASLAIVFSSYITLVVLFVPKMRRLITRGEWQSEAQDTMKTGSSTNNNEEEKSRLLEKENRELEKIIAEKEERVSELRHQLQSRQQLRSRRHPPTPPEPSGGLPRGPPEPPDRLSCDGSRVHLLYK
- Sequence (O75899 42-941 partner, species assumed): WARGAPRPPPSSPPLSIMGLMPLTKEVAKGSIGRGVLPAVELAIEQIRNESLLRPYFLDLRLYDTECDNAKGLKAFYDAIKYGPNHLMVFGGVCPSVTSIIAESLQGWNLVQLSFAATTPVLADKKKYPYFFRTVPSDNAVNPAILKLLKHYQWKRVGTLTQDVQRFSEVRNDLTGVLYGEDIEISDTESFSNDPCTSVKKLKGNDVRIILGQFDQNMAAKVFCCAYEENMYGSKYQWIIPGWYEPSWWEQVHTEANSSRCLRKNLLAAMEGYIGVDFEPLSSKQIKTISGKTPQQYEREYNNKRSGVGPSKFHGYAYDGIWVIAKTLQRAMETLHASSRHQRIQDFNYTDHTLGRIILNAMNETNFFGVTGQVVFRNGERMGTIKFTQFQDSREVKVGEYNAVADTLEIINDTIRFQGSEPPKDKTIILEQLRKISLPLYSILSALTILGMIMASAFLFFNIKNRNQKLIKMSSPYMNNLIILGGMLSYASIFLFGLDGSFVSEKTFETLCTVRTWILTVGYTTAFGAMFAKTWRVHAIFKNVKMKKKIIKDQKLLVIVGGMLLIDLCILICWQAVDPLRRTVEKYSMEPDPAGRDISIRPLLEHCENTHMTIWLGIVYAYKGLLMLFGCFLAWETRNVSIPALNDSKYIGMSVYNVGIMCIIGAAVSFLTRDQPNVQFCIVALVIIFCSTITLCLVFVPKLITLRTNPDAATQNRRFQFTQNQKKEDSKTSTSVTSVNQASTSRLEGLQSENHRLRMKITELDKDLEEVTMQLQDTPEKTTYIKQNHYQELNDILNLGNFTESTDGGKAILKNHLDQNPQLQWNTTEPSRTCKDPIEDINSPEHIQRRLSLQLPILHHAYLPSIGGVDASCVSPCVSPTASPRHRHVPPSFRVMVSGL
- testName: Two-electrode voltage clamp on GABAB receptors expressed in Xenopus oocytes
- Method: The activity of compounds (15), (16), (17), (18) and (19) on GABA receptor sub-types were determined as described in Chebib, M., Mewett, K. N., Johnston, G. A. R., 1998, “GABAC receptor antagonists differentiate between human ρ1 and ρ2 receptors expressed in Xenopus oocytes”, European Journal of Pharmacology 357, 227-234. In this method, oocytes were harvested from Xenopus laevis and defolliculated. […]

| compound | IC50 |
| --- | --- |
| CCCCP(=O)(O)C1=CCC(N)C1 (racemic) | ~300 µM |
| CCP(=O)(O)C1=CCC(N)C1 (racemic) | > 300 µM |
| CC(C)P(=O)(O)C1=CCC(N)C1 (racemic) | > 300 µM |

###

- targetUnderTest: GABAC (ρ1) (Homo sapiens)
- Construct: expressed in transfected cells; host or cells: Xenopus laevis oocytes injected with mRNA
- testName: Two-electrode voltage clamp on ρ1 GABAC receptors expressed in Xenopus oocytes
- Format: cell-based
- measurementParameters: Xenopus oocytes, voltage clamp -60 mV; read-out: GABAC (ρ1) IC50
pIC50: −log10 of the molar value.

| compound | pIC50 |
| --- | --- |
| NC1CC=C(P(=O)(O)Cc2ccccc2)C1 (racemic) [Compound 19] | < 3.52 |

###

- targetUnderTest: GABAC (ρ1) (Homo sapiens, UniProt P24046)
- Construct: expressed in transfected cells; host or cells: Xenopus laevis oocytes injected with mRNA
- testName: Two-electrode voltage clamp on ρ1 GABAC receptors expressed in Xenopus oocytes
- Assay type: cell-based
- measurementParameters: for GABAC over GABAA and GABAB

| molecule | Selectivity (fold) |
| --- | --- |
| CC(C)P(=O)(O)C1=CCC(N)C1 (racemic) [Compound 17] | ˜50x |
| CCP(=O)(O)C1=CCC(N)C1 (racemic) [Compound 16] | ˜25x |
| CP(=O)(O)C1=CCC(N)C1 (racemic) [Compound 15] | ˜50x |
| CCCCP(=O)(O)C1=CCC(N)C1 (racemic) [Compound 18] | ˜100x |
